// data source = patent US10258041B2

system: Amaranthus retroflexus; assay: Weed foliar treatment test (Test 3); assay type: in vivo; details: 10 g a.i./10a; foliar spray at 1.0 to 2.0 leaf stage of Digitaria ciliaris; 3 weeks, 25° C.
Description: […]
Listing of recorded herbicidal efficacy (growth inhibition rate level), Amaranthus retroflexus by entry.
outcomeMeasure: herbicidal efficacy (growth inhibition rate level), Amaranthus retroflexus

In [3]: df
Out[3]:
                                   molecule                       result
0  CC(=O)Nc1c([N+](=O)[O-])cnn1-c1nn2c(c1Cl)CCCC2 [Control Agent 2.17]  6 (6: 60% to less than 70%)
1  CCC(=O)Nc1c(C#N)cnn1-c1nn2c(c1Cl)CCCC2 [Control Agent 4.187]  6 (6: 60% to less than 70%)
2  N#Cc1cnn(-c2nn3c(c2Cl)CCCC3)c1NC(=O)CCCl [Control Agent 1.36]  6 (6: 60% to less than 70%)
3  N#Cc1cnn(-c2nn3c(c2Cl)CCCC3)c1NC(=O)CCl [Control Agent 1.9]  6 (6: 60% to less than 70%)
4  N#Cc1cnn(-c2nn3c(c2Cl)CCCC3)c1NC(=O)CCCCl [Control Agent 1.37]  7 (7: 70% to less than 80%)
